Source listed as patent US20230091336A1.

- System: SOCE in Jurkat T cells
- PROCEDURE DETAILS: SOCE Fura-2 bioassay in Jurkat cells
- Format: cell-based, human
- RECORDED CONDITIONS: pairs expected to inhibit 50%, FIGS. 10A-10T
QUANTITY MEASURED: combinatory effect on SOCE inhibition when paired with CBGA (isobolographic analysis)

These solved cases illustrate the format of a correct answer.
COMPOUND	RESULT
C=C(C)[C@@H]1CCC(C)=C[C@H]1c1c(O)cc(CCCCC)c(C(=O)O)c1O	sub-additive
CCCc1cc(O)c(C/C=C(\C)CCC=C(C)C)c(O)c1	supra-additive
CCCCCc1cc2c(c(O)c1C(=O)O)[C@@H]1[C@H]3C(CC[C@@]3(C)O2)C1(C)C (stereo partly drawn)	sub-additive
C=C(C)[C@@H]1CCC(C)=C[C@H]1c1c(O)cc(CCC)cc1O	sub-additive
CCCCCc1cc(O)c2c(c1)OC(C)(C)[C@@H]1CC=C(C)C[C@@H]21	sub-additive
CCCc1cc(O)c(C/C=C(\C)CCC=C(C)C)c(O)c1C(=O)O	Simple additive
CCCCCc1cc2c(c(O)c1C(=O)O)C=C[C@@](C)(CCC=C(C)C)O2	Simple additive
C=C(C)c1ccc(C)cc1-c1c(O)cc(CCCCC)cc1O	Simple additive

**Q:** Write down the reported combinatory effect on SOCE inhibition when paired with CBGA (isobolographic analysis) of CCCCCc1cc(O)c(C/C=C(\C)CCC=C(C)C)c(O)c1 , test system: SOCE in Jurkat T cells.
**A:** supra-additive

**Q:** Write down the reported combinatory effect on SOCE inhibition when paired with CBGA (isobolographic analysis) of CCCCCc1cc(O)c2c(c1)O[C@]1(C)CC[C@@H]3C1[C@@H]2C3(C)C (stereo partly drawn) , test system: SOCE in Jurkat T cells.
**A:** Simple additive

---

- MEASURED ON: TRPM7 (Homo sapiens, UniProt Q96QT4)
- Sequence (Q96QT4 whole entry, species assumed): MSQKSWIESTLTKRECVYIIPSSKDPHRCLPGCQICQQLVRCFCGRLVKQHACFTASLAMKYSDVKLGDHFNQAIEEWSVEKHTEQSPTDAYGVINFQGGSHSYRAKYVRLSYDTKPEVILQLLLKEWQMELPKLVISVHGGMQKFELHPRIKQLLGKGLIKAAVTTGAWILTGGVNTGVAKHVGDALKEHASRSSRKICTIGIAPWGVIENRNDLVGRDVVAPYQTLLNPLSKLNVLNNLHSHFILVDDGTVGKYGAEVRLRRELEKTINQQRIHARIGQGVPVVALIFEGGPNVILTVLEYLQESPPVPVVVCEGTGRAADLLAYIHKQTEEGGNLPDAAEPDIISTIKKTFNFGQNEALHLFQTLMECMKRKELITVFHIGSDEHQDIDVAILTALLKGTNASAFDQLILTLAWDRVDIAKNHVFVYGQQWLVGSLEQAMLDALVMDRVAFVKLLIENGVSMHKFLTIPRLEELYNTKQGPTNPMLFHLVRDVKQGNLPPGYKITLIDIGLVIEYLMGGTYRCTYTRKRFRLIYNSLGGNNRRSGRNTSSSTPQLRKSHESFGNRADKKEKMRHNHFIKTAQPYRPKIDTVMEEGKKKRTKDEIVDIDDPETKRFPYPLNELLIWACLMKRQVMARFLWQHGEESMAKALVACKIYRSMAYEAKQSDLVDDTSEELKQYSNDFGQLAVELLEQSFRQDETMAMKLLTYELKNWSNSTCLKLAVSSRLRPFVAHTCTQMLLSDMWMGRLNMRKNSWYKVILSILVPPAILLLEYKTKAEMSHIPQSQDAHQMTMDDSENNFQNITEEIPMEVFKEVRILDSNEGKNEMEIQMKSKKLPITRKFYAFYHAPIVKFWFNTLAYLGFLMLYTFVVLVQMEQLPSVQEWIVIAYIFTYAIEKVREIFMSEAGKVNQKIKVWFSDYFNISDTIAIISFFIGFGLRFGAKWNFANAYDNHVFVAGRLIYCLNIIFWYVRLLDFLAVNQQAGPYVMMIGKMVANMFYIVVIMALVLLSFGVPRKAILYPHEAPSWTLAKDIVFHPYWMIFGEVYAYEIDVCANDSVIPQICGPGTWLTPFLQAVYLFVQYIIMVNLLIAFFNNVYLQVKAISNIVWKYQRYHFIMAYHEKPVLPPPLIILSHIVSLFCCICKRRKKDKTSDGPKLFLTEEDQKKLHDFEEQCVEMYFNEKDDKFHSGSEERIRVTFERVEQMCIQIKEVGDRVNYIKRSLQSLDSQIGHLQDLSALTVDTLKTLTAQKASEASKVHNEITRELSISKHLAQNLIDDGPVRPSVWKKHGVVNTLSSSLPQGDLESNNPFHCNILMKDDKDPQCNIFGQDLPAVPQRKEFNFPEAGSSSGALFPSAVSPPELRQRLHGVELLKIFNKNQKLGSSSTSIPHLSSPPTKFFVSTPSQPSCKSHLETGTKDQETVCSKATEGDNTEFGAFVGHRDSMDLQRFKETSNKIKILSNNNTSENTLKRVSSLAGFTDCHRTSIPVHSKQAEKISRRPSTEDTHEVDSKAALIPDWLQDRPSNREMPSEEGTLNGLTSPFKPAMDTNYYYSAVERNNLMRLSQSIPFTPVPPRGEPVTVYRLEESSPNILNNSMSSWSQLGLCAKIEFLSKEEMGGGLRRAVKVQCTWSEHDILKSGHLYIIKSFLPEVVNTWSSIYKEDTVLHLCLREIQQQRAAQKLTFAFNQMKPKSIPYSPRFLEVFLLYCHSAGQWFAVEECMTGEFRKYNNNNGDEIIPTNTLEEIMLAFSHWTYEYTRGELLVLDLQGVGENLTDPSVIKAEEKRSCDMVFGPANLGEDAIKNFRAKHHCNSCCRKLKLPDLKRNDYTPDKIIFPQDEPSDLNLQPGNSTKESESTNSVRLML
- PROCEDURE DETAILS: Whole-cell patch clamp of TRPM7 over-expressed in HEK293 cells
- RECORDED CONDITIONS: HEK293 over-expressing TRPM7; FIG. 15; read-out: IC50 inhibition of TRPM7 currents
QUANTITY MEASURED: IC50

**Q:** Write down the reported IC50 of CCCCCc1cc(O)c(C/C=C(\C)CCC=C(C)C)c(O)c1C(=O)O , test system: TRPM7 (Homo sapiens, UniProt Q96QT4).
**A:** ~3 µM

---

- Test system: SOCE in U937 human monocytes
- PROCEDURE DETAILS: SOCE Fura-2 bioassay in U937 cells
- RECORDED CONDITIONS: Homo sapiens, U-937, read-out: IC50 SOCE, purified cannabinoids, U937; Table 5
QUANTITY MEASURED: IC50 (µM)
# value in µM; strip the unit string

LINE NOTATION	QUANTITY MEASURED	NUMERIC VALUE
CCCCCc1cc(O)c2c(c1)OC(C)(C)c1ccc(C)cc1-2	IC50	45.3
C=C(C)[C@@H]1CCC(C)=C[C@H]1c1c(O)cc(CCC)cc1O	IC50	17.5
C=C(C)[C@@H]1CCC(C)=C[C@H]1c1c(O)cc(CCCCC)c(C(=O)O)c1O	IC50	5.83
CCCCCc1cc(O)c(C/C=C(\C)CCC=C(C)C)c(O)c1	IC50	33.5

# context switch: different compound, same IC50
**Q:** Form field: reported IC50 of CCCc1cc(O)c(C/C=C(\C)CCC=C(C)C)c(O)c1C(=O)O
**A:** 2.86
